Recorded melting point, one value per entry.

Past entries and their recorded results:
C[C@H](Nc1ccc([N+](=O)[O-])c2nonc12)C(=O)N[C@@H]1CC[C@]2(C)C3CC[C@@]4(C)C(CCC4[C@H](C)CCC(=O)OCCOCCOCCN=[N+]=[N-])C3CC[C@@H]2C1 (stereo partly drawn)	69 to 70 °C
C[C@H](CCC(=O)OCCOCCOCCN=[N+]=[N-])C1CCC2C3CC[C@@H]4C[C@H](NC(=O)[C@H](CSC(C)(C)C)Nc5ccc([N+](=O)[O-])c6nonc56)CC[C@]4(C)C3CC[C@@]21C (stereo partly drawn)	64 to 65 °C

Dear colleague, I am looking for the recorded melting point of the following compound: C[C@H](CCC(=O)OCCOCCN=[N+]=[N-])C1CC[C@H]2[C@@H]3CC[C@@H]4C[C@H](OC(=O)[C@H](CC(=O)O)Nc5ccc([N+](=O)[O-])c6nonc56)CC[C@]4(C)[C@H]3CC[C@]12C (stereo partly drawn)
75 to 76 °C

Same for COc1ccc2c(CC(=O)N[C@@H](CC(=O)O)C(=O)O[C@@H]3CC[C@@]4(C)[C@H](CC[C@@H]5[C@@H]4CC[C@]4(C)C([C@H](C)CCC(=O)OCCOCCOCCOCCOCCN=[N+]=[N-])CC[C@@H]54)C3)cc(=O)oc2c1 (stereo partly drawn)
113 to 114 °C

----------
Target: α2,6(N)-sialyltransferases ST6GALI (Homo sapiens)
Construct: purchased RnDSystems.com (R&D Systems)
Sequence (P15907 1-406): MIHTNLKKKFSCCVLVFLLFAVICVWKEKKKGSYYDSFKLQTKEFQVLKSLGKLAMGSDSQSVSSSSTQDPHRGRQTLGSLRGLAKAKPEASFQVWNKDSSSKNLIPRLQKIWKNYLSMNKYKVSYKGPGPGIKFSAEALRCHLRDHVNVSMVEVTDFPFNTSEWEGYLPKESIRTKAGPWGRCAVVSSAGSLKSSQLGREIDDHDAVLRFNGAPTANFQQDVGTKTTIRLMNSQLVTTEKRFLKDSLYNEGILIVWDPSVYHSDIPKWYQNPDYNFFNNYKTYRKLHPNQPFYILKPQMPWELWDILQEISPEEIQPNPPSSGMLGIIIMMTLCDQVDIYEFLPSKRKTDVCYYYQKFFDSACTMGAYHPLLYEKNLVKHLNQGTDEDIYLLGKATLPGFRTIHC
Assay: Sialyltransferase inhibition assay, ST6GALI (reverse-phase HPLC)
Format: biochemical
Reported property: selectivity ratio ST3GALI/ST6GALI

Here are 2 compounds together with their reported answers.
C[C@H](CCC(=O)OCCN=[N+]=[N-])C1CC[C@H]2[C@@H]3CC[C@@H]4C[C@H](OC(=O)[C@H](CC(=O)O)NC(=O)c5ccc([N+](=O)[O-])cc5)CC[C@]4(C)[C@H]3CC[C@]12C (stereo partly shown)	>70
C[C@H](CCC(=O)OCCOCCN=[N+]=[N-])C1CC[C@H]2[C@@H]3CC[C@@H]4C[C@H](OC(=O)[C@H](CC(=O)O)NC(=O)c5ccc([N+](=O)[O-])cc5)CC[C@]4(C)[C@H]3CC[C@]12C (stereo partly shown)	>74

Can you look up the measured selectivity ratio ST3GALI/ST6GALI of COc1ccc2c(CC(=O)N[C@@H](CC(=O)O)C(=O)O[C@@H]3CC[C@@]4(C)[C@H](CC[C@@H]5[C@@H]4CC[C@]4(C)C([C@H](C)CCC(=O)OCCOCCOCCOCCN=[N+]=[N-])CC[C@@H]54)C3)cc(=O)oc2c1 (stereo partly shown) for me?
>101

Also COc1ccc2c(CC(=O)N[C@@H](CC(=O)O)C(=O)O[C@@H]3CC[C@@]4(C)[C@H](CC[C@@H]5[C@@H]4CC[C@]4(C)C([C@H](C)CCC(=O)OCCN=[N+]=[N-])CC[C@@H]54)C3)cc(=O)oc2c1 (stereo partly shown) ?
>89

Attribution: patent US10889611B2
